// provenance: patent US12419865B2

Assay: in vivo
Settings: mouse, po, 30 mg/kg
Measurement kind: half-life (min)
Give bare numbers, in min.

What the record says about Cc1cc2ncn(-c3ccc(OC(C)(C)C)cc3)c2cc1-c1ccc(C(C)(C)O)cc1 : half-life is 1020

###

What Percent parent compound remaining at 60 minutes in liver microsomes, Mouse was measured for each of the following?
Details: 1 h, pH 7.4

Here's what some known entries look like.
{"Compound": "Cc1cc2ncc(-c3ccc(OC(C)(C)C)cc3)n2cc1-c1ccc(C(C)(C)O)cc1 [Example B6]", "Reported result": "81.7%"}
{"Compound": "CC(C)Oc1ccc(-c2ccc3nnn(-c4ccc(OC(C)C)cc4)c3c2F)cc1 [Example C12]", "Reported result": "90.3%"}
{"Compound": "Cc1cc2ncn(-c3ccc(OC(C)(C)C)cc3)c2cc1-c1ccc(C(C)(C)O)cc1 [Example A1]", "Reported result": "82.7%"}
{"Compound": "Cc1cc2ncn(-c3ccc(OC(C)C)cc3)c2cc1-c1ccc(C(C)(C)O)cc1 [Example A3]", "Reported result": "25.4%"}
{"Compound": "Cc1cc2ncc(-c3ccc(C(C)(C)O)cc3)n2cc1-c1ccc(OC(C)C)cc1 [Example B8]", "Reported result": "77.5%"}
{"Compound": "CC(C)Oc1ccc(-c2cc3c(cc2Cl)nnn3-c2ccc(OC(C)C)cc2)cc1 [Example C11]", "Reported result": ">95%"}

Hi team, please reply with Percent parent compound remaining at 60 minutes in liver microsomes, Mouse for each item in this list.
1. Cc1c(-c2ccc(OC(C)C)cc2)ccc2nnn(-c3ccc(OC(C)C)cc3)c12 [Example C14]
2. Cc1cc2ncn(-c3ccc(OC(C)(C)C)cc3)c2cc1-c1ccc(OC(C)C)cc1 [Example A2]
3. Cc1cc2ncc(-c3ccc(OC(C)C)cc3)n2cc1-c1ccc(C(C)(C)O)cc1 [Example B5]
4. CC(C)Oc1ccc(-n2nnc3ccc(-c4ccc(C(C)(C)O)cc4)cc32)cc1 [Example C16]

Data returned:
[">95%", "93.9%", "16.4%", "57.4%"]
